TESTED TARGET: human MC4 receptor (Homo sapiens)
Construct: host or cells: CHO-K1
Sequence (P32245 whole entry): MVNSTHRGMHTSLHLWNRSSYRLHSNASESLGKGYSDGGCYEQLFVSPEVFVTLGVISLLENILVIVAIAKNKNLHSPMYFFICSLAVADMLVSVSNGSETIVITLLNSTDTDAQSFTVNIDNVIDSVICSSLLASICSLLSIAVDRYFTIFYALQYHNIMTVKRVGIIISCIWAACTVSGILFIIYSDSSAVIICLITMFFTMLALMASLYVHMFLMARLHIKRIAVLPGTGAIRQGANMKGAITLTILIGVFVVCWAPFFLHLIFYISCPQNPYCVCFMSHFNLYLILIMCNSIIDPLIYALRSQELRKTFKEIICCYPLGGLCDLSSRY
EXPERIMENT: Functional agonist assay: cAMP formation in CHO-K1 cells
Format: cell-based
DETAILS: 1 hour incubation, read-out: EC50 with respect to the MC4 receptor
pEC50: −log10 of the molar value. Structures can show the parent of a compound that is named as a salt.
VALUE TYPE: pEC50

[a] CCN(CC)C(=O)N(C1CCCCC1)C1CCN(C(=O)[C@@H](Cc2ccc(Cl)cc2)NC2CCC(N)CC2)CC1 (some centres unmarked) [Compound 2, hydrochloride]
[b] CCN(CC)C(=O)N(C1CCCCC1)C1CCN(C(=O)[C@@H](Cc2ccc(Cl)cc2)NC2CCNCC2)CC1
Hi, I'm comparing a with b and wondering which one has the bigger number for pEC50. Any idea? Answer by stating the label of the chosen item. a

* * *

TESTED TARGET: human MC3 receptor (Homo sapiens)
Sequence (P41968 whole entry): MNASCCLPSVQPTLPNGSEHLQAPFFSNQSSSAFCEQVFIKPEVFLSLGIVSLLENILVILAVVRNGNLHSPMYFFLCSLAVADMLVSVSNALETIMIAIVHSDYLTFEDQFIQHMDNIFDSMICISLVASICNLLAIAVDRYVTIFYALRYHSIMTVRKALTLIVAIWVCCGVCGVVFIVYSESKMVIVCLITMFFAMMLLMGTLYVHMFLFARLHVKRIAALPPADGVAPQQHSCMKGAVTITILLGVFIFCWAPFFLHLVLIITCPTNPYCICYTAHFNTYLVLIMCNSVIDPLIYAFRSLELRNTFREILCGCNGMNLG
EXPERIMENT: Functional agonist assay: cAMP formation in CHO(dhfr-) cells
DETAILS: 1 hour incubation, read-out: EC50 with respect to the MC3 receptor
pEC50: −log10 of the molar value. Structures can show the parent of a compound that is named as a salt.
VALUE TYPE: pEC50

COMPOUND | VALUE TYPE | OBS VALUE
CCN(CC)C(=O)N(C1CCCCC1)C1CCN(C(=O)[C@@H](Cc2ccc(Cl)cc2)NC2CCC(N)CC2)CC1 (some centres unmarked) [Compound 2, hydrochloride] | pEC50 | 6.43
CCN(CC)C(=O)N(C1CCCCC1)C1CCN(C(=O)[C@@H](Cc2ccc(Cl)cc2)NC2CCNCC2)CC1 | pEC50 | 6.23
